Reported values of TGI for individual entries
System: SW-620 colon
Assay: NCI tumour cell line growth inhibition, 48 h
The reply should contain only the number, in µM.

Smiles notation	Unit text	TGI
C=C1C(=O)O[C@H]2[C@H]1CC/C(COC(=O)N[C@H](Cc1c[nH]c3ccccc13)C(=O)OC)=C\CC[C@@]1(C)O[C@@H]21	µM	4.17

# input for lookup
SW-620 colon data for O=C(c1ccc(Nc2nccc(NCCCCNc3ccnc4cc(Cl)ccc34)n2)cc1)N1CCCCC1 ; its TGI: 2.17

----------
Reported values of TGI for individual entries
Tested on: RPMI-8226 leukemia
Assay: NCI tumour cell line growth inhibition, 48 h

Sample CN1N=C(c2ccccc2)c2cc(Cl)ccc2N=C1N/N=C/c1ccc(N(C)C)cc1 ; TGI observed: > 100 µM

Sample O=C(O)CCSC(=O)Nc1ccccc1 ; TGI observed: > 100 µM
